- target: Cellular tumor antigen p53 (Homo sapiens)
- protocolDescription: Primary qHTS for small molecule compounds that upregulate eGFP-tagged delta133p53alpha (in N-terminal) cells. (AID 2060322);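 note: cells pre-induced with doxycycline then dosed without doxycycline; 0% = DMSO vehicle and 100% = reference activator; nearly all actives have a fitted effect of over 75% in size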
- measurementParameters: NCI-H358 eGFP-delta133p53alpha fluorescence, 24 h; active compounds read high
Inconclusive results are not listed.
observationType: activation (%)

CCOC(=O)c1csc(Nc2ccc(Cl)cc2)n1: -7
CC(C)(C)c1ccc(-c2nc3ccccc3[nH]2)cc1: -14.3
C=C1CCCC2(C)CCC(C(C)(C)OC3OC(C)C(O)C(O)C3OC(=O)/C(C)=C\C)CC12 (stereo unspecified): -19.8
C=C1CC23CC1CCC2C12OC(=O)C(C)(C(O)CC1O)C2C3C(=O)O (stereo unspecified): -7.14
C=C[C@@]12COC(=O)C(=C)[C@@H]1[C@@H](O)[C@H](C(=C)C(=O)OC)[C@@H](O)C2: -7.63
CC(C)c1c(-c2cnn(C(C)(C)C)c2)nc2c(C#N)c[nH]n2c1=O: 11.2
O=C(CCSCc1ccco1)NNC(=O)N1Cc2ccccc2Oc2ccc(Cl)cc21: 22
CN1CCc2cc(Cl)c(O)cc2[C@@H](c2cccc3c2OCC3)C1: -1.67
C=C1CCC2[C@](C)(CCC[C@@]2(C)C=O)[C@H]1CC/C(C)=C/CO (stereo partly specified): 11.5
CCN[C@@H]1C[C@H](N)[C@@H](OC2OC(CN)=CCC2N)[C@H](O)[C@H]1O[C@H]1OC[C@](C)(O)[C@H](NC)[C@H]1O (stereo partly specified): 1.67
COc1cn(-c2ccc(-n3cccn3)cc2F)nc(-c2ccnn2-c2ccccc2)c1=O: 0
COC1C2=C(COC2=O)C2(C)CCCC(C)(CO)C2C1OC(=O)c1ccccc1 (stereo unspecified): -16
Nc1nc2c(ncn2COC(CO)CO)c(=O)[nH]1: -11.7
CNC(=O)c1cnn(-c2nc(N)c3ncn([C@@H]4O[C@H](CO)[C@@H](O)[C@H]4O)c3n2)c1: -18.4
Cc1c(Cl)cccc1Nc1ccccc1C(=O)O: 8.47
CC[C@]12CCCN3CCc4c(n(c5ccccc45)[C@@](O)(C(=O)OC)C1)[C@@H]32: 5.02
Cn1cnc(-c2nccc3c(=O)[nH]c(OCCCC(F)(F)F)nc23)c1: -13.4
CC1CCN=C(N)S1 (stereo unspecified): -24.3
CCCCCC(N)=O: -17.5
CCO[C@@H]1OC(=O)C[C@@H]1NC(=O)[C@@H]1CCCN1C(=O)[C@@H](NC(=O)c1ccc(N)c(Cl)c1)C(C)(C)C: -7.64
CC1CCC2C(C)(C)CC(C)(CO)C2(O)C1C(=O)O (stereo unspecified): 15.3

###

- target: Cellular tumor antigen p53 (Homo sapiens) (UniProt P04637)
- Sequence (P04637 whole entry, looked up): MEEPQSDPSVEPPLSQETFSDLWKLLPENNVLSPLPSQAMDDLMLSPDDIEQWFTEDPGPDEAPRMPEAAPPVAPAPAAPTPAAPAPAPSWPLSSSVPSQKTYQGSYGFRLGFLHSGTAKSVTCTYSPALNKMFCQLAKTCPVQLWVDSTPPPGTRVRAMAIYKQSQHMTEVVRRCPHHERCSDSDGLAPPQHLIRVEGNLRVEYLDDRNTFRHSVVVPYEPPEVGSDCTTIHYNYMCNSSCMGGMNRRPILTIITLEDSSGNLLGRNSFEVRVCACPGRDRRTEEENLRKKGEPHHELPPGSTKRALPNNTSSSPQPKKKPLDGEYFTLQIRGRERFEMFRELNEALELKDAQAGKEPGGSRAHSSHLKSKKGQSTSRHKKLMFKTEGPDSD
- protocolDescription: Primary qHTS for small molecule compounds that upregulate eGFP-tagged delta133p53alpha (in C-terminal) cells. (AID 2060324)
- measurementParameters: NCI-H358 delta133p53alpha-eGFP (C-terminal tag), GFP fluorescence imaging, 24 h; series mostly up to 57.5 µM
Inconclusive results are not listed. Active and inactive are the calls of the source. Calls come from the whole dose curve; as a rule, active = well fitted activation curve with a large enough effect; inconclusive = small, poorly fitted or top-dose-only effect; inactive = flat fitted curve, though single readings scatter.
Possible outcomes: Y (active), N (inactive)

COC(=O)Nc1nc2ccc(C(=O)c3cccs3)cc2[nH]1: N
CN(C(=O)CCCOc1ccc2[nH]c(=O)ccc2c1)C1CCCCC1: N
CCCn1c(=O)c2[nH]c(C3CCCC3)nc2n(CCC)c1=O: N
CN1CCN(C2=Nc3ccccc3Oc3ccc(Cl)cc32)CC1: N
O=C(O)C1=CC(=C(c2ccc(O)c(C(=O)O)c2)c2ccc(O)c(C(=O)O)c2)C=CC1=O: N
O=P(O)(O)C(Cl)(Cl)P(=O)(O)O: N
COc1ccc2c(c1OC)C(=O)O[C@@H]2[C@H]1c2c(cc3c(c2OC)OCO3)CCN1C: N
NC(=O)CNCCC(c1ccccc1)c1ccccc1: N
C[C@](Cc1ccc(O)c(O)c1)(NN)C(=O)O: N
COc1cc(/C=C(\C#N)C(=O)c2ccc(O)c(O)c2)cc(I)c1O: Y
NC(=O)CC[C@H](N)C(=O)O: N
O=C(O)c1ccccc1Nc1cccc(OCc2ccc3ccccc3n2)c1: N
CC(C)NCC(O)c1ccc(NS(C)(=O)=O)cc1 (stereo not given): N
CSC(=N)N: N
CC(C)(C)NC[C@H](O)COc1nsnc1N1CCOCC1: N
COc1cc2nc(N3CCN(C(=O)C4COc5ccccc5O4)CC3)nc(N)c2cc1OC (stereo not given): N
Cc1ccccc1C(OCCN(C)C)c1ccccc1 (stereo not given): N
Nc1ccc(-c2nc3ccc(-c4nc5ccc(N)cc5[nH]4)cc3[nH]2)cc1: N
OC[C@H]1NC[C@@H](O)[C@@H]1O: N
CCCn1cnc2c1c(=O)n(CCCCC(C)=O)c(=O)n2C: N
Cc1cc(O)c2c(c1)C(=O)c1cc(O)cc(O)c1C2=O: Y
CCCN(CCC)CCc1cccc2c1CC(=O)N2: N
Cc1cnc(C(=O)NCCc2ccc(S(=O)(=O)NC(=O)NC3CCCCC3)cc2)cn1: N
Cc1nc(N=Nc2ccc(S(=O)(=O)O)cc2S(=O)(=O)O)c(COP(=O)(O)O)c(C=O)c1O: N
NC(=O)c1cccc(N)c1: N
